assay: P. aeruginosa biofilm formation inhibitors, primary screen, PAO1 strain, BacTiter-Glo luminescence, LB-PBS (AID 1144); details: 12 h, higher = more signal
PROPERTY_NAME: z-score
Answers are plain numbers.

# MOLECULE, z-score
rows = [
    ("COCCOC(=O)N1C(=O)[C@@]2(c3cc(C#CCC(C(=O)OC)C(=O)OC)ccc31)[C@H](C(=O)N1CCCCCCC1)[C@H]1C(=O)O[C@H](c3ccccc3)[C@H](c3ccccc3)N1[C@@H]2c1ccccc1OCCO", -0.728),
    ("CCCCCCCCCCC(O)C1C=CC2C(=O)N(C)C(=O)C2N1N1CCCCC1 (centres undefined)", 0.816),
    ("CC(C)C[C@H]1NC(=O)[C@@]23C(=O)N[C@@H](Cc4ccccc4)C2[C@H](C)[C@@]2(C)O[C@H]2C3/C=C/C/C=C\\CNC(=O)[C@@H]2CCCN2C1=O (some centres undefined)", 0.341),
    ("COCCOC(=O)N1C(=O)[C@@]2(c3ccccc31)[C@H](c1ccc(OCCO)cc1)N1[C@H](c3ccccc3)[C@H](c3ccccc3)OC(=O)[C@H]1[C@@H]2C(=O)N1CCN(c2ncccn2)CC1", -0.266),
    ("CN(C)CCCC[C@@H]1NC(=O)[C@@H]2C[C@H](C(=O)NCc3ccc(F)cc3)[C@H](c3ccc(O)cc3)N2C1=O", -0.886),
]

Hi team, please reply with z-score for each item in this list.
1. CN(C)CCCC[C@@H]1NC(=O)[C@H]2C[C@@H](C(=O)NCc3ccc(F)cc3)[C@@H](c3ccc(O)cc3)N2C1=O
2. C=CCC(OC(C)=O)[C@@H]1[C@@H](N(Cc2ccc(-c3ccccc3)cc2)C(=O)c2ccc(-c3ccccc3)cc2)c2cc(OCCCO)ccc2N1C(=O)c1ccc2ccccc2n1 (some centres undefined)
3. CC(C)c1ccc(NN2C(C(O)C(C)C)C=CC3C(=O)N(c4ccccc4)C(=O)C32)cc1 (centres undefined)
4. CN1C(=O)[C@]2(CCC(=O)OC(C)(C)C)N=C(c3ccc(OCCCO)cc3)O[C@@H]2c2ccccc21

1: 0.792; 2: 0.196; 3: -0.202; 4: -0.598

Hi team, please reply with z-score for each item in this list.
1. COC(=O)[C@@]1(CCS(=O)(=O)c2ccccc2)N=C(c2ccc(OCCCO)cc2)O[C@H]1c1ccccc1N=[N+]=[N-]
2. N#Cc1ccc(C(O)C2C=CC3C(=O)NC(=O)C3N2Nc2ccccn2)cc1 (centres undefined)
3. O=C1O[C@@H](c2ccccc2)[C@@H](c2ccccc2)N2[C@@H](c3ccc(OCCO)cc3)[C@]3(C(=O)Nc4ccc(C#CCCO)cc43)[C@@H](C(=O)Nc3nc4ccccc4s3)[C@H]12

1: -0.16; 2: -1.11; 3: -0.397

Hi team, please reply with z-score for each item in this list.
1. C#CCN(C/C=C/c1ccccc1)[C@H](CO[Si](C)(C)C(C)(C)C)c1ccccc1
2. O=C1C2C=CC(C(O)c3cccc(O)c3)N(Nc3ccccc3F)C2C(=O)N1c1ccccc1 (centres undefined)

1: 0.221; 2: -2.21
